Origin of values: PubChem BioAssay (NCATS)

# System: GB4
# MEASUREMENT_DESCRIPTION: qHTS profiling for inhibitors of Plasmodium falciparum proliferation (AID 504749); note: nearly all actives have a fitted effect of over 60% in size
# RECORDED_CONDITIONS: P. falciparum in erythrocytes, SYBR Green DNA, 72 h; series mostly up to 28.7 µM
# Method: NIH National Institute of Allergy and Infectious Diseases [NIAID] NIH Chemical Genomics Center [NCGC] […] Because mature erythrocytes lack DNA, only Plasmodium-derived DNA is detected. NCGC Assay Protocol Summary: The SYBR Green viability assay was adapted from a method described previously (Plouffe et al., 2008). […] The following morning, fluorescence intensity at 485(14) nm excitation and 535(25) nm emission wavelengths was measured on an EnVision (Perkin Elmer) plate reader. […]
Results filed as inconclusive are left out. The source made the active and inactive calls. Calls come from the whole dose curve; as a rule, active = well fitted inhibition curve with a large enough effect; inconclusive = small, poorly fitted or top-dose-only effect; inactive = flat fitted curve, though single readings scatter.
Your reply should match one of these outcome classes. Yes (active), No (inactive)

Returns: the outcome recorded for `Cc1cc(C(C)(C)C)c(O)c(C)c1CC1=NCCN1` in this assay.
No

Another compound to look at: `CCC1(c2ccccc2)C(=O)NCNC1=O`
No

Another compound to look at: `OCCN1CCN(CCCN2c3ccccc3Sc3ccc(C(F)(F)F)cc32)CC1`
Yes

Another compound to look at: `O=c1c(-c2ccc(O)cc2)coc2cc(O)cc(O)c12`
No

Another compound to look at: CCCNCC(O)COc1ccccc1C(=O)CCc1ccccc1 (stereo not drawn)
Yes

Another compound to look at: `COc1cc2c(c(OC)c1OC)-c1ccc(OC)c(=O)cc1[C@@H](NC(C)=O)CC2`
No

Another compound to look at: `NCCc1cnc[nH]1`
No

Another compound to look at: `Cn1ccc2cc3c(cc21)CCN3C(=O)Nc1cccnc1`
Yes

Another compound to look at: CC(CCc1ccc(O)cc1)NCCc1ccc(O)c(O)c1 (stereo not drawn)
No

Another compound to look at: COc1ccccc1OCC(O)CN1CCN(CC(=O)Nc2c(C)cccc2C)CC1 (stereo not drawn)
No

Another compound to look at: `Clc1ccccc1C(c1ccccc1)(c1ccccc1)n1ccnc1`
Yes

Another compound to look at: `O=C(Nc1ccc([N+](=O)[O-])cc1Cl)c1cc(Cl)ccc1O`
Yes

Another compound to look at: `CC(C)(C)C(=O)Oc1ccc(S(=O)(=O)Nc2ccccc2C(=O)NCC(=O)O)cc1`
No

----------
# MEASUREMENT_DESCRIPTION: qHTS assay for measurement of the activity of small molecule inhibitors on Zika virus induced Caspase-3 activity in human astrocytoma cells (AID 1224859)
# RECORDED_CONDITIONS: SNB-19 ZIKV-induced caspase-3/7, luminescence, 6 h; series mostly up to 45.7 µM
The source made the active and inactive calls. The call rests on the fitted dose curve; in most records, active means well fitted inhibition curve with a large enough effect; inconclusive means small, poorly fitted or top-dose-only effect; inactive means no such curve, though single readings can be large or run the other way.
REPORTED_ENDPOINT: outcome

Solved cases (5 shown):
CS(=O)(=O)Nc1ccc([N+](=O)[O-])cc1Oc1ccccc1    inactive
Cc1cn([C@H]2C=C[C@@H](CO)O2)c(=O)[nH]c1=O    inactive
CC1(CN2CCC(n3c(=O)[nH]c4ccccc43)CC2)OCc2ccccc2-n2cccc21 (stereo not given)    inactive
Cn1ccc2cc3c(cc21)CCN3C(=O)Nc1cccnc1    inactive
COc1nc(C)nc(Cl)c1NC1=NCCN1    inactive

Can you look up the measured outcome of `O=c1[nH]cc(F)c(=O)[nH]1` for me?
inactive

Another compound to look at: `CCOC(=O)Nc1ccc(NCc2ccc(F)cc2)nc1N`
inactive

Another compound to look at: COc1cc2nc(N(C)CCCNC(=O)C3CCCO3)nc(N)c2cc1OC (stereo not given)
inactive

Another compound to look at: `CC[C@@]1(O)C(=O)OCc2c1cc1n(c2=O)Cc2cc3c(CN(C)C)c(O)ccc3nc2-1`
inactive

Another compound to look at: `CC1(C)O[C@H]2CC(=O)OC[C@]23[C@H]2CC[C@@]4(C)[C@H](c5ccoc5)OC(=O)[C@H]5O[C@]54[C@]2(C)C(=O)C[C@@H]13`
inactive

----------
# MEASUREMENT_DESCRIPTION: Quantitative High-Throughput drug screen in 47 multiple myeloma cell lines against the NCATS MIPE library collection: KMS26_JCRB cell viability assay (AID 1918975); note: nearly all actives have a fitted effect of over 45% in size
# RECORDED_CONDITIONS: KMS26 myeloma cells viability, CellTiter-Glo ATP, 48 h; series mostly up to 45.8 µM
Inconclusive results are not listed. The source made the active and inactive calls. Calls follow the shape of the dose curve; as a rule, active = well fitted cell-killing curve with a large enough effect; inconclusive = small, poorly fitted or top-dose-only effect, or effect the other way; inactive = no such curve, though single readings can be large or run the other way.
Your reply should match one of these outcome classes. YES = active, NO = inactive

Returns: the outcome recorded for `CNCCCC12CCC(c3ccccc31)c1ccccc12` in this assay.
YES

Another compound to look at: `CN(C)CCOC(c1ccccc1)c1ccccc1`
NO

Another compound to look at: `CN(C)C(=N)N=C(N)N`
NO

Another compound to look at: CCC1(C)CC(=O)NC1=O (stereo not drawn)
NO

Another compound to look at: `Fc1ccc([C@@H]2CCNC[C@H]2COc2ccc3c(c2)OCO3)cc1`
NO

Another compound to look at: `CN(C)C(=O)C(CCN1CCC(O)(c2ccc(Cl)cc2)CC1)(c1ccccc1)c1ccccc1`
YES

Another compound to look at: `CC[C@@]1(O)C(=O)OCc2c1cc1n(c2=O)Cc2cc3c(CN(C)C)c(O)ccc3nc2-1`
YES

Another compound to look at: CN1CCN2c3ccccc3Cc3ccccc3C2C1 (stereo not drawn)
YES

----------
# Tested on: CP260
# MEASUREMENT_DESCRIPTION: qHTS profiling for inhibitors of Plasmodium falciparum proliferation (AID 504749); note: nearly all actives have a fitted effect of over 60% in size
# RECORDED_CONDITIONS: P. falciparum in erythrocytes, SYBR Green DNA, 72 h; series mostly up to 28.7 µM
Records with an inconclusive call do not appear. Calls of active or inactive are those of the source. The call rests on the fitted dose curve; in most records, active means well fitted inhibition curve with a large enough effect; inconclusive means small, poorly fitted or top-dose-only effect; inactive means flat fitted curve, though single readings scatter.
Your reply should match one of these outcome classes. active, inactive

Returns: the outcome recorded for `NCCCCCC(=O)O` in this assay.
inactive

Another compound to look at: `Cn1c(=O)c2[nH]cnc2n(C)c1=O`
inactive

Another compound to look at: `Clc1ccc2nsnc2c1NC1=NCCN1`
inactive

Another compound to look at: `NC(=O)NO`
inactive

Another compound to look at: `COc1nc(C)nc(Cl)c1NC1=NCCN1`
inactive

Another compound to look at: `Cc1cc(C(C)(C)C)c(O)c(C)c1CC1=NCCN1`
inactive

Another compound to look at: `O=C1N(c2ccccc2)c2ccccc2C1(Cc1ccncc1)Cc1ccncc1`
inactive

Another compound to look at: CC(C)Cc1ccc(C(C)C(=O)O)cc1 (stereo not drawn)
inactive

Another compound to look at: `CN1C(C(=O)Nc2ccccn2)=C(O)c2ccccc2S1(=O)=O`
inactive

Another compound to look at: `Cc1cn([C@H]2C[C@H](N=[N+]=[N-])[C@@H](CO)O2)c(=O)[nH]c1=O`
inactive

Another compound to look at: `CCCCc1oc2ccccc2c1C(=O)c1cc(I)c(OCCN(CC)CC)c(I)c1`
active

Another compound to look at: CC(C)NCC(O)c1ccc(O)c(O)c1 (stereo not drawn)
inactive

Another compound to look at: `NC12CC3CC(CC(C3)C1)C2`
inactive

----------
# MEASUREMENT_DESCRIPTION: qHTS of pediatric cancer cell lines to identify multiple opportunities for drug repurposing: Confirmatory screen for control Hh wild type fibroblast cells (AID 1347121); note: nearly all actives have a fitted effect of over 70% in size
# RECORDED_CONDITIONS: viability qHTS; series mostly up to 45.9 µM
Results filed as inconclusive are left out. Active and inactive are the calls of the source. Calls follow the shape of the dose curve; as a rule, active = well fitted cell-killing curve with a large enough effect; inconclusive = small, poorly fitted or top-dose-only effect, or effect the other way; inactive = flat fitted curve, though single readings scatter.
Your reply should match one of these outcome classes. active, inactive

Returns: the outcome recorded for `CCC1(c2ccccc2)C(=O)NCNC1=O` in this assay.
inactive

Another compound to look at: `CCCCc1oc2ccccc2c1C(=O)c1cc(I)c(OCCN(CC)CC)c(I)c1`
active

Another compound to look at: `O=C(c1ccc(OCCN2CCCCC2)cc1)c1c(-c2ccc(O)cc2)sc2cc(O)ccc12`
inactive

Another compound to look at: `COc1cc2c(c(OC)c1OC)-c1ccc(OC)c(=O)cc1[C@@H](NC(C)=O)CC2`
inactive

Another compound to look at: `CN1CCN(CCCN2c3ccccc3Sc3ccc(Cl)cc32)CC1`
inactive

Another compound to look at: `COC(=O)Nc1nc2ccc(C(=O)c3cccs3)cc2[nH]1`
inactive

----------
# Test system: CP185
# MEASUREMENT_DESCRIPTION: qHTS profiling for inhibitors of Plasmodium falciparum proliferation (AID 504749); note: nearly all actives have a fitted effect of over 60% in size
# RECORDED_CONDITIONS: P. falciparum in erythrocytes, SYBR Green DNA, 72 h; series mostly up to 28.7 µM
# Description: NIH National Institute of Allergy and Infectious Diseases [NIAID] NIH Chemical Genomics Center [NCGC] […] Because mature erythrocytes lack DNA, only Plasmodium-derived DNA is detected. NCGC Assay Protocol Summary: The SYBR Green viability assay was adapted from a method described previously (Plouffe et al., 2008). […] The following morning, fluorescence intensity at 485(14) nm excitation and 535(25) nm emission wavelengths was measured on an EnVision (Perkin Elmer) plate reader. […]
Inconclusive results are not listed. Calls of active or inactive are those of the source. Calls follow the shape of the dose curve; as a rule, active = well fitted inhibition curve with a large enough effect; inconclusive = small, poorly fitted or top-dose-only effect; inactive = flat fitted curve, though single readings scatter.
REPORTED_ENDPOINT: outcome

Solved cases (5 shown):
CC(C)(Oc1ccc(C2CC2(Cl)Cl)cc1)C(=O)O (stereo unspecified)    inactive
Cn1c(=O)c2[nH]cnc2n(C)c1=O    inactive
CN(CCOc1ccc(NS(C)(=O)=O)cc1)CCc1ccc(NS(C)(=O)=O)cc1    inactive
COc1ccccc1N1CCN(CC(O)COc2cccc3ccccc23)CC1 (stereo unspecified)    inactive
CNCCCC12CCC(c3ccccc31)c1ccccc12    inactive

# next molecule below
Can you look up the measured outcome of `Nc1nnc(-c2cccc(Cl)c2Cl)c(N)n1` for me?
inactive
